measurement notes: Food effect cross-over study, 200 mg (25 mg tablets), healthy volunteers: plasma pharmacokinetics
Assay type: in vivo, human
stated conditions: human, plasma, oral, 72 hours postdose, Fasted, read-out: Plasma concentration, Geometric Mean
readout name: concentration at 72 h
Express the reported value numerically, then name its unit.

concentration at 72 h lookup needed for Cn1cc(S(=O)(=O)[C@@](C)(F)C2CCN(C(=O)Nc3ccon3)CC2)c(C(F)F)n1 , thanks.
93.2 ng/mL

----------
measurement notes: Food effect cross-over study, 200 mg (25 mg tablets), healthy volunteers: plasma pharmacokinetics
Type: in vivo, human
stated conditions: human, plasma, oral, N = 11, read-out: AUClast, Fasted LSGM
readout name: AUC(0-t) (ng·h/mL)
The answer is to be given in ng·h/mL; state only the numeric part.

AUC(0-t) lookup needed for Cn1cc(S(=O)(=O)[C@@](C)(F)C2CCN(C(=O)Nc3ccon3)CC2)c(C(F)F)n1 , thanks.
57400
